System: M. intracellulare
Assay: Antibacterial activity (MIC) against M. intracellulare
Format: cell-based, Mycobacterium intracellulare
Conditions: M. intracellulare N-345; Table 3
RESULT TYPE: MIC (µg/mL)

{"columns": ["MOLECULE", "STUDY SYSTEM", "RESULT TYPE", "EXPERIMENTAL RESULT"],
 "data": [
  ["COc1c(N2CC3CCCNC3C2)c(F)cc2c(=O)c(C(=O)O)cn([C@@H]3C[C@@H]3F)c12 (stereo partly shown) [Compd. 6]", "M. intracellulare", "MIC", 3.13],
  ["NC1CN(c2c(F)cc3c(=O)c(C(=O)O)cn([C@@H]4C[C@@H]4F)c3c2Cl)CC12CC2 (stereo partly shown) [Compd. 4]", "M. intracellulare", "MIC", 3.13],
  ["O=C(O)c1cn([C@@H]2C[C@@H]2F)c2c(Cl)c(N3CC4CCCNC4C3)c(F)cc2c1=O (stereo partly shown) [Compd. 2]", "M. intracellulare", "MIC", 0.78],
  ["COc1c(N2CC(N)C3(CC3)C2)c(F)cc2c(=O)c(C(=O)O)cn([C@@H]3C[C@@H]3F)c12 (stereo partly shown) [Compd. 8]", "M. intracellulare", "MIC", 1.56]
]}

----------
Test system: Mycobacterium tuberculosis (RFP sensitive)
Experiment: Antibacterial activity (MIC) against Mycobacterium tuberculosis (RFP sensitive)
Assay type: cell-based
Details: M. tuberculosis Kurono; Table 5
RESULT TYPE: MIC (µg/mL)

{"columns": ["COMPOUND", "EXPERIMENTAL RESULT"],
 "data": [
  ["O=C(O)c1cn([C@@H]2C[C@@H]2F)c2c(Cl)c(N3CC4CCCNC4C3)c(F)cc2c1=O (stereo partly drawn)", 0.013],
  ["COc1c(N2CC3CCCNC3C2)c(F)cc2c(=O)c(C(=O)O)cn(C3CC3)c12 (stereo not drawn)", 0.05],
  ["Cc1c(N2CC3CCCNC3C2)c(F)cc2c(=O)c(C(=O)O)cn(C3CC3)c12 (stereo not drawn)", 0.013],
  ["Cc1c(N2CC3CCCNC3C2)c(F)cc2c(=O)c(C(=O)O)cn([C@@H]3C[C@@H]3F)c12 (stereo partly drawn)", 0.006],
  ["NC1CN(c2c(F)cc3c(=O)c(C(=O)O)cn(C4CC4)c3c2Cl)CC12CC2 (stereo not drawn)", 0.05],
  ["COc1c(N2CC(N)C3(CC3)C2)c(F)cc2c(=O)c(C(=O)O)cn([C@@H]3C[C@@H]3F)c12 (stereo partly drawn)", 0.05]
]}

----------
System: M. intracellulare
Test: Antibacterial activity (MIC) against M. intracellulare
Assay type: cell-based, Mycobacterium intracellulare
Details: M. intracellulare N-313; Table 3
# Lookup of reported MIC keyed by entry

{"columns": ["COMPOUND", "UNIT SPEC", "MIC"],
 "data": [
  ["Cc1c(N2CC3CCCNC3C2)c(F)cc2c(=O)c(C(=O)O)cn([C@@H]3C[C@@H]3F)c12 (stereo partly shown)", "µg/mL", 0.10],
  ["Cc1c(N2CC(N)C3(CC3)C2)c(F)cc2c(=O)c(C(=O)O)cn([C@@H]3C[C@@H]3F)c12 (stereo partly shown)", "µg/mL", 0.20],
  ["COc1c(N2CC3CCCNC3C2)c(F)cc2c(=O)c(C(=O)O)cn(C3CC3)c12 (stereo not shown)", "µg/mL", 0.78],
  ["NC1CN(c2c(F)cc3c(=O)c(C(=O)O)cn([C@@H]4C[C@@H]4F)c3c2Cl)CC12CC2 (stereo partly shown)", "µg/mL", 0.39],
  ["C[C@H]1COc2c(N3CC(N)C4(CC4)C3)c(F)cc3c(=O)c(C(=O)O)cn1c23 (stereo partly shown)", "µg/mL", 0.78],
  ["COc1c(N2CC3CCCNC3C2)c(F)cc2c(=O)c(C(=O)O)cn([C@@H]3C[C@@H]3F)c12 (stereo partly shown)", "µg/mL", 0.78],
  ["Cc1c(N2CC(N)C3(CC3)C2)c(F)cc2c(=O)c(C(=O)O)cn(C3CC3)c12 (stereo not shown)", "µg/mL", 0.39]
]}
